tested on: FADD-deficient Jurkat cells; assay: necroptosis assay: FADD-deficient Jurkat cells treated with TNFα, cell viability; assay type: cell-based, human; conditions: max viability obtained in the presence of a compound; FADD-deficient Jurkat cells treated with TNFα
ASSAY METRIC: Max Prot (%)
Give bare numbers, in %.

Guide cases for Max Prot, answers given:
Cc1ccc(-n2c(SCC#N)nc3sc4c(c3c2=O)CCCC4)cc1 [Compound 38] ... 48.6
COc1ccc(-n2c(SCC#N)nc3sc4c(c3c2=O)CCCC4)cc1 [Compound 1] ... 100
CCOc1ccc(-n2c(SCC#N)nc3sc4c(c3c2=O)CCCC4)cc1 [Compound 35] ... 83.8
N#CCSc1nc2sc3ccccc3c2c(=O)n1-c1ccc2c(c1)OCCO2 [Compound 135] ... 100
N#CCSc1nc2sc3ccccc3c2c(=O)n1-c1ccc2c(c1)OCO2 [Compound 146] ... 100

Working through the 6 molecules below one at a time, give Max Prot for each.
1. Cc1ccc(-n2c(SCC#N)nc3sc4c(c3c2=O)CCCC4)cc1C [Compound 43]
2. COc1ccc(-n2c(SCC#N)nc3sc4c(c3c2=O)CCCCC4)cc1 [Compound 74]
3. COc1ccc(-n2c(SC)nc3sc4ccccc4c3c2=O)cc1 [Compound 90]
4. CCOc1ccc(-n2c(SCC#N)nc3sc(C)c(C)c3c2=O)cc1 [Compound 154]
5. COc1ccc(-n2c(SCC#N)nc3sc4c(c3c2=O)CCCC4)cc1OC [Compound 47]
6. N#CCSc1nc2sc3c(c2c(=O)n1-c1ccc(Cl)c(Cl)c1)CCCC3 [Compound 44]

[45.0, 83, 77, 97, 57.0, 39.0]

For each of the molecules below, note its Max Prot.
1. N#CCSc1nc2sc3c(c2c(=O)n1-c1ccc2c(c1)OCCO2)CCC3 [Compound 133]
2. Cc1sc2nc(SCC#N)n(-c3ccc4c(c3)OCCO4)c(=O)c2c1C [Compound 136]

[100, 100]

---

system: FADD-deficient Jurkat cells; experiment: necroptosis assay: FADD-deficient Jurkat cells treated with TNFα, cell viability; type: cell-based, human; conditions: effective concentration for half-maximum response; inhibition of necroptosis in FADD-deficient Jurkat cells treated with TNFα; read-out: EC50
Sorting guide: entries reporting EC50 beneath 6 µM go in the Condition met pile, the rest go in the Condition not met pile.

Reference set, count: 3
COc1ccc(-n2c(SCCO)nc3sc(C)c(C)c3c2=O)cc1 ... Condition not met
CSc1nc2sc3c(c2c(=O)n1-c1ccc(F)cc1)CCCC3 ... Condition met
N#CCSc1nc2sc3c(c2c(=O)n1-c1ccc(F)cc1)CCC3 ... Condition met

Then this compound:
Dear colleague, could you confirm whether EC50 of N#CCSc1nc2sc3ccccc3c2c(=O)n1-c1ccc(F)cc1 falls below 6 µM? Thanks.
Condition met

---

Assignment: determine reported log10 EC50 for the given compounds.
tested on: FADD-deficient Jurkat cells; experiment: necroptosis assay: FADD-deficient Jurkat cells treated with TNFα, cell viability; format: cell-based, human; conditions: effective concentration for half-maximum response; inhibition of necroptosis in FADD-deficient Jurkat cells treated with TNFα; read-out: EC50
Values reflect log10 of reported EC50 (nM).

The following compounds each have a reported value; give each one's log10 EC50.
1. CSc1ccc(-n2c(SCC#N)nc3sc4c(c3c2=O)CCCC4)cc1
2. COc1ccc(-n2c(SCCO)nc3sc4c(c3c2=O)CCC4)cc1
3. Cc1ccc(-n2c(SCC#N)nc3sc4c(c3c2=O)CCCC4)cc1C

1. 3.37
2. 3.85
3. 4.22

---

Would you mind telling me the reported EC50 of each entry?
system: FADD-deficient Jurkat cells; test: necroptosis assay: FADD-deficient Jurkat cells treated with TNFα, cell viability; assay type: cell-based, human; conditions: effective concentration for half-maximum response; inhibition of necroptosis in FADD-deficient Jurkat cells treated with TNFα; read-out: EC50
Give bare numbers, in nM.

Completed entries (count: 8):
Cc1sc2nc(SCC#N)n(-c3ccc4c(c3)OCCO4)c(=O)c2c1C ... 250
N#CCSc1nc2sc3c(c2c(=O)n1-c1ccc2c(c1)OCO2)CCC3 ... 1180
C#CCSc1nc2sc(C)c(C)c2c(=O)n1-c1ccc(OC)cc1 ... 4860
CSc1nc2sc3ccccc3c2c(=O)n1-c1ccc(F)cc1 ... 3060
COc1ccc(-n2c(SCC#N)nc3sc4c(c3c2=O)CCCCC4)cc1 ... 960
COc1ccc(-n2c(SCCl)nc3sc4c(c3c2=O)CCCC4)cc1 ... 2220
COc1ccc(-n2c(SCC#N)nc3sc4ccccc4c3c2=O)cc1 ... 180
CSc1nc2sc(C)c(C)c2c(=O)n1-c1ccc2c(c1)OCO2 ... 1110

Hi! Can you tell me EC50 for each of these compounds?
1. COc1ccc(-n2c(SC)nc3sc4c(c3c2=O)CCC4)cc1
2. N#CCSc1nc2sc3c(c2c(=O)n1-c1ccc(Cl)cc1)CCCC3
3. CSc1nc2sc3c(c2c(=O)n1-c1ccc(F)cc1)CCC3

[240, 8500, 3000]

Working through the 3 compounds below one at a time, give EC50 for each.
1. CCc1c(C)sc2nc(SCC#N)n(-c3ccc4c(c3)OCO4)c(=O)c12
2. N#CCSc1nc2sc3c(c2c(=O)n1-c1ccc(OC(F)(F)F)cc1)CCC3
3. N#CCSc1nc2sc3c(c2c(=O)n1-c1ccc(F)cc1)CCCC3

1: 1900; 2: 3700; 3: 240
